Experiment: protein stability index of a GFP-peptide fusion (GPS, HEK-293T) (PSI 1-6); higher = more stable;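 also: 24-mer peptide tiles fused after GFP, lentivirally expressed, FACS-sorted into six equal bins by GFP/DsRed ratio, decoded by Illumina sequencing, PSI is the read-weighted mean bin number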
Details: treatment: MLN4924 1 uM, 8 h; c terminus: a fixed tail appended
Please enter Condition met where protein stability index is greater than or equal to 4, and Condition not met where it is lower.

>>> print(df.to_string())
                              sequence        class_label
 0  SGIGREGAKDSYDFFTEIKTITVK [ALDH8A1]  Condition not met
 1    QVVSQGWKYFKGNFYYFSLIPKTW [CD207]  Condition not met
 2    QSERQRHESQQLATETQALAQRTQ [TEKT4]      Condition met
 3    SRLLLLEQELKTVTYSLLKRLKER [SMAD6]  Condition not met
 4     SRLRFLNLGRMIDWVPVESLLRPL [ZER1]  Condition not met
 5   RMTGGRPPLPPPDDPATLGPHLGL [DYRK1B]      Condition met
 6   MGSQGSPVKSYDYLLKFLLVGDSD [RAB40C]  Condition not met
 7  MRGRIYLEPPTMRKKRLLDRKVLL [GOLPH3L]  Condition not met
 8   TDRKLDDGDDKVFRRAPSWRKRFR [PPFIA4]      Condition met
 9    SRSTSFRGGMGSGGLATGIAGGLA [KRT18]  Condition not met
10    IKSHSSLPPNNSYADFERFSKVLE [DAPK3]  Condition not met
11   FTDYGLAALAVNTSILSRLPPEAL [RNF208]  Condition not met
12    ERDREREPEAASSRGSPVRVKREF [USP39]      Condition met
13    EQKLRACLEGSINEHSAHCPHTPE [RPAIN]      Condition met
14    ELVSADVIDLFDEQGLSALHLAAQ [RIPK4]  Condition not met
15    FVENGHSESSGQTHLEGDTVQIIC [CFHR2]  Condition not met
16     GLEHAAAGGSSGTTARERPCVRPG [FBF1]      Condition met
17    LVCTADGDIHLSPEEPAASTDPNI [TAF7L]      Condition met
18    SNNNGRIKQLRSGGTPIRGALQIE [PTPRD]  Condition not met
19   YPCVLATEGFTSGRHYWEVEVGDK [TRIM39]  Condition not met
20    LAAVTPHDFIEHILRKLPQQREKL [CCND2]  Condition not met
21    PALETQPQGDEEDIASRYPTLWTE [SMOC2]      Condition met
22   LLLLDLLALYTPVGAAGSARQELL [ANKRD9]  Condition not met
23   MVVSREEVELAYQEAMFNMATLNR [SEPHS2]  Condition not met
24    TVQGKKGVYMTDITPQGVAMRAGV [PDZK1]  Condition not met

* * *

Experiment: protein stability index of a GFP-peptide fusion (GPS, HEK-293T) (PSI 1-6); higher = more stable
Details: treatment: DMSO; c terminus: a fixed tail appended
Ranges used to classify protein stability index: interval 1 (below 3), interval 2 (3 to below 4), interval 3 (4 or more)

>>> print(df.to_string())
                               sequence  class_label
 0    TLITAVELERFVNLHSLALDFCDF [FBXO33]   interval 1
 1    EVCCTSIVYATEKKQTKVEFPEAR [KCTD13]   interval 2
 2     HLANHDDLISKSFQGSQGRAYLFN [YPEL3]   interval 1
 3   QTFQWVKLPATMPEPVYFHCAAVT [KLHDC10]   interval 1
 4     RSLNVFVKDDDRLTFHRHPVAQST [SPSB4]   interval 2
 5    QAKILQCYRENTHQTLKCSALATQ [CHCHD3]   interval 2
 6     LEEAKQPKNDNVVIPECAHGGLYK [SMOC2]   interval 3
 7  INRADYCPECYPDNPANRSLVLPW [TOR1AIP2]   interval 1
 8     LFKAHFRGEVLPEEITEESLEESV [INTS3]   interval 3
 9    PPGPDRLPSNLVQYYDDEKKTWKI [KLHL14]   interval 3
10      GGKSGELEQEEERLSKEWEDSKRW [CHGA]   interval 3
11     MSGGGVIRGPAGNNDCRIYVGNLP [SRSF1]   interval 1
12    LEKEEEKDLVMYSKCQRLFRSPSM [CDC25B]   interval 2
13      KPDGTVEQIGHILVSWLPRLNAYR [NET1]   interval 1
14      FTGNSKLELNFKAGDVIFLLSRIN [NCF4]   interval 1
15    ESEDCKLPSNPCATTNACEKPIGS [KRT33B]   interval 3
16     RASFWLALVGCVISDNPERYSTNL [EDNRA]   interval 1
17     TNHIAPHARNGLSLKEEHRAYDLL [IKZF1]   interval 2
18      FDGPEAWGVCEPQREEVEERMWAA [ZER1]   interval 2
19      PRGYFHTFAGDTCQVALNFANEEE [WASL]   interval 3
20    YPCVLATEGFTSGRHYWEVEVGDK [TRIM39]   interval 1
21   IPPKSVNPTCMCCQATSSTACHIQ [FAM219A]   interval 2

FYI, the data here is from the supplement of paper PMC10567573.
